# Tested on: Zone of skin
# Assay overview: Drug permeation in top 100 micrometer sections of human skin using Franz-cell skin model assessed as compound penetration per mg tissue exposed to 2% wt/vol of compound administered topically measured after 24 hrs exposure by HPLC
# Type: ADME, tissue-based

{"Test smiles": "N=C(NCCCCCCNC(=N)NC(=N)Nc1ccc(Cl)cc1)NC(=N)Nc1ccc(Cl)cc1.O=C(O)[C@H](O)[C@@H](O)[C@H](O)[C@H](O)CO", "System under test": "Zone of skin", "tissue concentration": "7.88 µg/mg"}

###

# Test system: Zone of skin
# Assay overview: Drug permeation in top 100 micrometer sections of human skin using Franz-cell skin model assessed as compound penetration per mg tissue exposed to 2% wt/vol of compound administered topically measured after 2 mins exposure by HPLC
# Type: ADME, tissue-based

{"Test smiles": "N=C(NCCCCCCNC(=N)NC(=N)Nc1ccc(Cl)cc1)NC(=N)Nc1ccc(Cl)cc1.O=C(O)[C@H](O)[C@@H](O)[C@H](O)[C@H](O)CO", "tissue concentration (µg/mg)": 0.157}

###

# Test system: Zone of skin
# Assay overview: Drug permeation in deeper <300 micrometer sections of human skin using Franz-cell skin model assessed as compound penetration per mg tissue exposed to 2% wt/vol of compound administered topically measured after 2 mins exposure by HPLC
# Type: ADME, tissue-based
Assay metric: Drug uptake

{"Test smiles": "N=C(NCCCCCCNC(=N)NC(=N)Nc1ccc(Cl)cc1)NC(=N)Nc1ccc(Cl)cc1.O=C(O)[C@H](O)[C@@H](O)[C@H](O)[C@H](O)CO", "Value measured": "< 0.002 µg"}
